Taken from patent US7642270B2.

system-under-test: UniProt P07333
assay-details: c-fms autophosphorylation, fluorescence polarization competition immunoassay
Format: biochemical
recorded-conditions: 10 nM c-fms, 1 mM ATP, 5 mM MgCl2, 45 min room temperature; averages of three independent measurements; read-out: c-fms Autophosphorylation IC50
pIC50: −log10 of the molar value.
Short version: pIC50 at least 7 is true (1), less is false (0).

# molecule, discrete-label
rows = [
    ("CN1CCN(c2ccc(Nc3ncc4c(=O)c(C(=O)O)cn(-c5ccc6c(c5)CCC6)c4n3)cc2)CC1", "false (0)"),
    ("CN1CCN(c2cccc(Nc3ncc4c(=O)c(C(N)=O)cn(C5CCCCC5)c4n3)c2)CC1", "true (1)"),
    ("CCNC(=O)c1cn(-c2ccc3c(c2)CCC3)c2nc(Nc3ccc(N4CC(C)NC(C)C4)cc3)ncc2c1=O (stereo not shown)", "true (1)"),
    ("CCNC(=O)c1cn(-c2ccc3c(c2)CCC3)c2nc(Nc3cccc(N4CCNCC4)c3)ncc2c1=O", "true (1)"),
    ("CNC(=O)c1cn(-c2ccc3c(c2)CCC3)c2nc(Nc3ccc(OCC(O)CN(C)C)cc3)ncc2c1=O (stereo not shown)", "true (1)"),
    ("CCNC(=O)c1cn(-c2ccc3c(c2)CCC3)c2nc(Nc3cccc(N4CCN(C)CC4)c3)ncc2c1=O", "true (1)"),
    ("CCOC(=O)c1cn(-c2ccc3c(c2)CCC3)c2nc(Nc3ccc(N(C)C)cc3)ncc2c1=O", "false (0)"),
    ("CN1CCN(c2ccc(Nc3cc4c(cn3)c(=O)c(C(N)=O)cn4-c3ccc4c(c3)CCC4)cc2)CC1", "true (1)"),
    ("NC(=O)c1cn(-c2ccc3c(c2)CCC3)c2nc(Nc3cccc(CN4CCOCC4)c3)ncc2c1=O", "true (1)"),
    ("CN1CCN(c2ccc(Nc3ncc4c(=O)c(C(N)=O)cn(C5CCCCC5)c4n3)cc2)CC1", "true (1)"),
    ("CCOC(=O)c1cn(-c2ccc3c(c2)CCC3)c2nc(Nc3cccc(N(C)C)c3)ncc2c1=O", "false (0)"),
    ("CCNC(=O)c1cn(-c2ccc3c(c2)CCC3)c2nc(Nc3ccc(CN4CCN(C)CC4)cc3)ncc2c1=O", "true (1)"),
]

###

system-under-test: c-fms (Homo sapiens)
assay-details: c-fms autophosphorylation, fluorescence polarization competition immunoassay
Format: biochemical
recorded-conditions: 10 nM c-fms, 1 mM ATP, 5 mM MgCl2, 45 min room temperature; averages of three independent measurements; read-out: c-fms Autophosphorylation IC50
# True = IC50 below 200 nM (exclusive); False = IC50 at/above 200 nM

# compound, discrete-label
rows = [
    ("CCNC(=O)c1cn(-c2ccc3c(c2)CCC3)c2nc(Nc3ccc(CCS(=O)(=O)NC(C)C)cc3)ncc2c1=O", "False"),
    ("CN1CCN(c2ccc(Nc3ncc4c(=O)c(C(N)=O)cn(C5CCCC5)c4n3)cc2)CC1", "True"),
    ("CN1CCN(CC(=O)N2CCC(c3ccc(Nc4ncc5c(=O)c(C(N)=O)cn(-c6ccc7c(c6)CCC7)c5n4)cc3)CC2)CC1", "False"),
    ("CNC(=O)c1cn(-c2ccc3c(c2)CCC3)c2nc(Nc3ccc(CCS(=O)(=O)NC(C)C)cc3)ncc2c1=O", "True"),
    ("CN(C)C(=O)c1cccc(Nc2ncc3c(=O)c(C(N)=O)cn(-c4ccc5c(c4)CCC5)c3n2)c1", "True"),
    ("CC1CN(c2cccc(Nc3ncc4c(=O)c(C(N)=O)cn(-c5ccc6c(c5)CCC6)c4n3)c2)CC(C)N1 (stereo not drawn)", "True"),
    ("CN(C)CC(=O)N1CCC(c2cccc(Nc3ncc4c(=O)c(C(N)=O)cn(-c5ccc6c(c5)CCC6)c4n3)c2)CC1", "False"),
    ("NC(=O)c1cn(-c2ccc3c(c2)CCC3)c2nc(Nc3ccc(CCN4CCOCC4)cc3)ncc2c1=O", "True"),
    ("CCNC(=O)c1cn(-c2ccc3c(c2)CCC3)c2nc(Nc3ccc(N4CCN(C)CC4)cc3)ncc2c1=O", "True"),
    ("CN1CCN(Cc2cccc(Nc3ncc4c(=O)c(C(N)=O)cn(-c5ccc6c(c5)CCC6)c4n3)c2)CC1", "True"),
    ("CCOC(=O)c1cn(-c2ccc3c(c2)CCC3)c2nc(Nc3ccc(N4CCN(C)CC4)cc3)ncc2c1=O", "False"),
    ("CNC(=O)c1cn(-c2ccc3c(c2)CCC3)c2nc(Nc3ccc(N4CCNCC4)cc3)ncc2c1=O", "True"),
    ("CCNC(=O)c1cn(-c2ccc3c(c2)CCC3)c2nc(Nc3ccc(CCN4CCN(C)CC4)cc3)ncc2c1=O", "True"),
    ("CCOC(=O)c1cn(-c2ccc3c(c2)CCC3)c2nc(Nc3ccc(N4CCOCC4)cc3)ncc2c1=O", "False"),
    ("CCNC(=O)c1cn(C2CCCCC2)c2nc(Nc3ccc(CCN4CCOCC4)cc3)ncc2c1=O", "True"),
]

###

system-under-test: UniProtKB P07333
assay-details: c-fms autophosphorylation, fluorescence polarization competition immunoassay
Format: biochemical
recorded-conditions: 10 nM c-fms, 1 mM ATP, 5 mM MgCl2, 45 min room temperature; averages of three independent measurements; read-out: c-fms Autophosphorylation IC50
The following compounds are listed with their measured IC50 values.
value-kind: IC50 (nM)

# compound, system-under-test, value-kind, result-number
data = [
    ("CCNC(=O)c1cn(C2CCCCC2)c2nc(Nc3ccc(N4CCN(C)CC4)cc3)ncc2c1=O [Cpd 62]", "UniProtKB P07333", "IC50", 190),
    ("CNC(=O)c1cn(-c2ccc3c(c2)CCC3)c2nc(Nc3cccc(C(=O)N(C)C)c3)ncc2c1=O [Cpd 80]", "UniProtKB P07333", "IC50", 74),
    ("CCNC(=O)c1cn(C2CCCCC2)c2nc(Nc3cccc(N4CCN(C)CC4)c3)ncc2c1=O [Cpd 65]", "UniProtKB P07333", "IC50", 110),
    ("CCOC(=O)c1cn(C2CCCCC2)c2nc(Nc3ccc(N4CCN(C)CC4)cc3)ncc2c1=O [Cpd 17]", "UniProtKB P07333", "IC50", 1700),
]

###

system-under-test: c-fms (Homo sapiens)
assay-details: c-fms autophosphorylation, fluorescence polarization competition immunoassay
Format: biochemical

# molecule, display-unit, IC50
records = [
    ("NC(=O)c1cn(-c2ccc3c(c2)CCC3)c2nc(Nc3ccc(CN4CCOCC4)cc3)ncc2c1=O", "nM", 18),
]

###

Form field: IC50 (one value per entry).
system-under-test: c-fms (Homo sapiens)
assay-details: c-fms autophosphorylation, fluorescence polarization competition immunoassay
Assay type: biochemical
recorded-conditions: 10 nM c-fms, 1 mM ATP, 5 mM MgCl2, 45 min room temperature; averages of three independent measurements; read-out: c-fms Autophosphorylation IC50

# compound, IC50 / nM
data = [
    ("CN1CCN(c2ccc(Nc3ncc4c(=O)c(C(N)=O)cn(C5CC6CCC5C6)c4n3)cc2)CC1 (stereo not shown) [Cpd 82]", 81),
    ("CCNC(=O)c1cn(C2CC3CCC2C3)c2nc(Nc3ccc(N4CCN(C)CC4)cc3)ncc2c1=O (stereo not shown) [Cpd 83]", 300),
    ("CN(C)CC(O)COc1ccc(Nc2ncc3c(=O)c(C(N)=O)cn(-c4ccc5c(c4)CCC5)c3n2)cc1 (stereo not shown) [Cpd 10]", 13),
    ("CN1CCN(c2cccc(Nc3ncc4c(=O)c(C(N)=O)cn(-c5ccc6c(c5)CCC6)c4n3)c2)CC1 [Cpd 37]", 8),
]

###

system-under-test: c-fms (Homo sapiens, UniProt P07333)
Sequence (P07333 20-972): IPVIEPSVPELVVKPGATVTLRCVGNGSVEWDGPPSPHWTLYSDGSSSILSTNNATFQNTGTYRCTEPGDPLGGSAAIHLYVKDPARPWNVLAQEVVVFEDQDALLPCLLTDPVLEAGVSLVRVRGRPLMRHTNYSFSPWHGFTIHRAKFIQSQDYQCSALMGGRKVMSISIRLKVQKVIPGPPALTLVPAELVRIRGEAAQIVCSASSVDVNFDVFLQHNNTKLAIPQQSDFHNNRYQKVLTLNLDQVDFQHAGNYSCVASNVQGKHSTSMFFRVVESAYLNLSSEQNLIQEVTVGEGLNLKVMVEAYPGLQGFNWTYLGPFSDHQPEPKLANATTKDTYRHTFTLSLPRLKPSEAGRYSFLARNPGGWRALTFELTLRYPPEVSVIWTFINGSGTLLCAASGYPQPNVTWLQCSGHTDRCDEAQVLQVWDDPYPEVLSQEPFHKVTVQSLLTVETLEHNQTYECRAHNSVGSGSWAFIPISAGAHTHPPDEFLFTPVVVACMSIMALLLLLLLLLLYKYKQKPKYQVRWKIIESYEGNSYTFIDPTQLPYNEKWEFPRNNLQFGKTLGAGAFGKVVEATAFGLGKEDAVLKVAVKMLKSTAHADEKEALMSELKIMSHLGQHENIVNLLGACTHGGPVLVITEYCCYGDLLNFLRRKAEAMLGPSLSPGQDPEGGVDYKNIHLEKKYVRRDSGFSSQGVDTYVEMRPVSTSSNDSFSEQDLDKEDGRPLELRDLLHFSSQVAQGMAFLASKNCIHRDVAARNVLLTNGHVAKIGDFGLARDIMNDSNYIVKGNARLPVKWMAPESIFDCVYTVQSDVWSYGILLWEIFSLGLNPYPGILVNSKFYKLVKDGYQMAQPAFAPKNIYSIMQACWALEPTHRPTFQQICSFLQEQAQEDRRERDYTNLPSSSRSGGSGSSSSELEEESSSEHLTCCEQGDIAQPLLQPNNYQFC
assay-details: c-fms autophosphorylation, fluorescence polarization competition immunoassay
Assay type: biochemical
recorded-conditions: 10 nM c-fms, 1 mM ATP, 5 mM MgCl2, 45 min room temperature; averages of three independent measurements; read-out: c-fms Autophosphorylation IC50
pIC50: −log10 of the molar value.
value-kind: pIC50

# molecule, result-operator, result-number
measured = [
    ("CNC(=O)c1cn(-c2ccc3c(c2)CCC3)c2nc(Nc3ccc(C4CCNCC4)cc3)ncc2c1=O", "=", 7.82),
    ("CN(C)c1cccc(Nc2ncc3c(=O)c(C(N)=O)cn(-c4ccc5c(c4)CCC5)c3n2)c1", "=", 7.92),
    ("CNC(=O)c1cn(-c2ccc3c(c2)CCC3)c2nc(Nc3ccc(CCS(=O)(=O)N4CCOCC4)cc3)ncc2c1=O", "=", 7.10),
    ("CN1CCN(CC(=O)N2CCC(c3cccc(Nc4ncc5c(=O)c(C(N)=O)cn(-c6ccc7c(c6)CCC7)c5n4)c3)CC2)CC1", "<", 6.00),
]
